Molecular target: JAK3 (Homo sapiens, UniProt P52333)
Construct: 5 μl of catalytic domain recombinant Kinase enzyme+Tyr peptide substrate (Invitrogen, CA)
Sequence (P52333 822-1111 limits assumed): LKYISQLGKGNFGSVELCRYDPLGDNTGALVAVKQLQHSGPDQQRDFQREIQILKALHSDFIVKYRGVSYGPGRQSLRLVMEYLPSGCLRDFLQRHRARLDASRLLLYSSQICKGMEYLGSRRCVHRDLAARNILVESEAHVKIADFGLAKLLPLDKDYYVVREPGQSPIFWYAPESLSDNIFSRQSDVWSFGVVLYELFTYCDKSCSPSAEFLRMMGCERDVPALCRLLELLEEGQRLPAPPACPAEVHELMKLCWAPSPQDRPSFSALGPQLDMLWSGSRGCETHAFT
Experiment: Z'-LYTE kinase assay JAK3
pIC50: −log10 of the molar value.
Property name: pIC50

NC(=O)c1cnc(Nc2ccc(C(=O)N3CCC3)cc2)cc1NCc1c(F)cccc1F ... 8.00 to 9.00
N#Cc1ccc(Nc2cc(NCc3ccccc3)c(C(N)=O)cn2)cc1 ... 6.00 to 7.00
CN(C)C(=O)C1CCN(c2ccc(Nc3cc(NCc4cccc(-c5ccncc5)c4)c(C(N)=O)cn3)cc2)CC1 ... 8.00 to 9.00

Problem: Value wanted: pIC50 (JAK3 (Homo sapiens, UniProt P52333)) of entry `COCC(=O)N1CC(c2ccc(Nc3cc(NCc4cccc5[nH]ccc45)c(C(N)=O)cn3)cc2)C1`
Solution: > 9.00

Problem: Next entry: `NC(=O)c1cnc(Nc2ccc(S(=O)(=O)N3CCC3)cc2)cc1NCC1CCCC1`
Solution: 6.00 to 7.00

Problem: Next entry: `CC(=O)N1CCN(c2ccc(Nc3cc(NCc4ccc5c(c4)OCO5)c(C(N)=O)cn3)cc2)CC1`
Solution: 7.00 to 8.00

Problem: Next entry: `NC(=O)c1cnc(Nc2ccc(N3CCOCC3)cc2)cc1NCc1ccccc1`
Solution: 8.00 to 9.00

Problem: Next entry: `NC(=O)c1cnc(Nc2ccc(-c3nc[nH]n3)cc2)cc1NCc1ccccc1`
Solution: 7.00 to 8.00
